assaySystem: human TLR7 (Homo sapiens (Human))
Sequence (Q9NYK1 27-1049): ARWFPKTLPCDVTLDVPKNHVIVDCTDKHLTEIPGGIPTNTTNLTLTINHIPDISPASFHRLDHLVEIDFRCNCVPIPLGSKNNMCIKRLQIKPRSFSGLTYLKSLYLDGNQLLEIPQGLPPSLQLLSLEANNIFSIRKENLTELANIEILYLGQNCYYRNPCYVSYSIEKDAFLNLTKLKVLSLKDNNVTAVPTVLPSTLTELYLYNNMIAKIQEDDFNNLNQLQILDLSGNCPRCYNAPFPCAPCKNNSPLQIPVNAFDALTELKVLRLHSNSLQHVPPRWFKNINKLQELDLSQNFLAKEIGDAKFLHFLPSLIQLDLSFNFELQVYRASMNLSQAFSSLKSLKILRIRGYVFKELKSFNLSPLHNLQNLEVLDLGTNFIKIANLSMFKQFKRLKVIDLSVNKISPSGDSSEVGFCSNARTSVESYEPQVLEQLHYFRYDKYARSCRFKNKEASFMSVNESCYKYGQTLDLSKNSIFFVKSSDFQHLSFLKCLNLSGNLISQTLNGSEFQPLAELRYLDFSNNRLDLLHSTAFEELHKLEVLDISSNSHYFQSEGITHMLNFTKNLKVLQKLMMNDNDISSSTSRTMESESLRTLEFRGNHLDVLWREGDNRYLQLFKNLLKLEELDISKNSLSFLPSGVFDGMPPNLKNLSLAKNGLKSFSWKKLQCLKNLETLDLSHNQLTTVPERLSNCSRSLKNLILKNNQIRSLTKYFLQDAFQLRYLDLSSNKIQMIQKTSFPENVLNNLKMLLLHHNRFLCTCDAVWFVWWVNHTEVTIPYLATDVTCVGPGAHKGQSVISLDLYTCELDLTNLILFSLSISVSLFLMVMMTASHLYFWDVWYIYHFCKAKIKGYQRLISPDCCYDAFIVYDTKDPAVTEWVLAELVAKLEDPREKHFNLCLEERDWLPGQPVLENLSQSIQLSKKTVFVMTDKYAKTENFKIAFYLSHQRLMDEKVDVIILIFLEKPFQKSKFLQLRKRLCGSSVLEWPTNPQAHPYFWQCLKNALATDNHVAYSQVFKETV
experimentSummary: TLR7 inhibition reporter assay (HEK-Blue cells, SEAP reporter, gardiquimod stimulation)
Format: cell-based
conditionDetails: HEK-Blue cells overexpressing human TLR7, gardiquimod 7.5 μM
Mark 1.0 for IC50 under 10 nM, 0.0 if at or over.

Previously resolved entries follow.
CC(=O)N1CCC(c2ccc3[nH]c(-c4cc(C)nc(F)c4)c(C(C)C)c3c2)CC1 [Example 499]    0.0
Cc1cc(-c2[nH]c3ccc(C4CCN(CC(=O)NCC5CCCO5)CC4)cc3c2C(C)C)cc(C)n1 (centres unmarked) [Example 266]    1.0

Item Cc1cc(-c2[nH]c3ccc(C4CCN(C(=O)CN(C)C(C)C)CC4)cc3c2C(C)C)cc(C)n1 [Example 354] : IC50 beneath 10 nM, strictly?
1.0

Item CCc1c(-c2ccnc(OC)c2)[nH]c2ccc(C3CCN([C@H]4CCCNCC4)CC3)cc12 [Example 794] : IC50 beneath 10 nM, strictly?
0.0

Item CCC(CC)C(=O)N1CCC(c2ccc3[nH]c(-c4cc(C)nc(C)c4)c(C(C)C)c3c2)CC1 [Example 104] : IC50 beneath 10 nM, strictly?
0.0

Item Cc1cc(-c2[nH]c3ccc(C4CCN(C(=O)CN5CCCC(O)C5)CC4)cc3c2C(C)C)cc(C)n1 (centres unmarked) [Example 383] : IC50 beneath 10 nM, strictly?
1.0

Item CCc1c(-c2ccncc2)[nH]c2ccc(C3CCN(Cc4cccn4C)CC3)cc12 [Example 805] : IC50 beneath 10 nM, strictly?
0.0

Item Cc1cc(-c2[nH]c3cc(C)c(C4CCNCC4)cc3c2C(C)C)ccn1 [Example 75] : IC50 beneath 10 nM, strictly?
1.0
